Reference source: patent US20220112288A1

# system under test: T1, Recombinant human CD4 (R&D Systems, Cat. 10327-CD) (human, UniProt P01730 26-390, limits assumed)
# T1 construct: Bought protein; also called huCD4
# method: BLI (Octet Red384), purified antibody on anti-mouse Fc sensors, human CD4 100/50/25 nM, global 1:1 fit;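 note: antibodies loaded at 10 µg/mL, curves fitted across association and dissociation phases, with an unrelated mouse-derived antibody serving as internal reference control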
Entries annotated with measured kon
readout kind: kon (M⁻¹ s⁻¹)

binder="75110_07J02A (antibody, V domains shown, Tested as antibody purified from AlivaMab Mouse Kappa hybridoma (human V regions, kappa light chain, mouse Fc captured by anti-mouse Fc sensors); also called 75110_07102A) VH: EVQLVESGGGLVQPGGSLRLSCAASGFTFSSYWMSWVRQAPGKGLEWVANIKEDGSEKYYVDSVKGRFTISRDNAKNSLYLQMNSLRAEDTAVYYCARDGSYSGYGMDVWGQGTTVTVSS VL: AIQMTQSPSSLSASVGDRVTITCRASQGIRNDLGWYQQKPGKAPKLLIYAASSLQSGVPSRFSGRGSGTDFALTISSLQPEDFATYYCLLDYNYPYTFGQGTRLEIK" value_reported=160000
binder="75110_12H19A (antibody, V domains shown, Tested as antibody purified from AlivaMab Mouse Kappa hybridoma (human V regions, kappa light chain, mouse Fc captured by anti-mouse Fc sensors)) VH: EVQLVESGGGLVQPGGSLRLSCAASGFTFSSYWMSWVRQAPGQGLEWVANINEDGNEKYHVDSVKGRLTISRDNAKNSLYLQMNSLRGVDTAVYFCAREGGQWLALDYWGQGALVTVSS VL: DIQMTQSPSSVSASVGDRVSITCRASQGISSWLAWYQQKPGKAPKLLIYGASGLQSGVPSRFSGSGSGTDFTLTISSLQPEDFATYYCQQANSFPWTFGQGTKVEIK" value_reported=170000
binder="75110_08F20A (antibody, V domains shown, Tested as antibody purified from AlivaMab Mouse Kappa hybridoma (human V regions, kappa light chain, mouse Fc captured by anti-mouse Fc sensors)) VH: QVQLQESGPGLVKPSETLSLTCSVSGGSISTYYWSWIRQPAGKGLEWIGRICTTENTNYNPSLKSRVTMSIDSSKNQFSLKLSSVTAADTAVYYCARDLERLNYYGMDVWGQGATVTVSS VL: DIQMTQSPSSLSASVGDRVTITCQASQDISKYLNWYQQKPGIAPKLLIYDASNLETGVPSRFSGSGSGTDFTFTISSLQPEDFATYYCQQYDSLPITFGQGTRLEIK" value_reported=170000
